As shown below, each of these sequences has a reported TF binding intensity value.
# TESTED TARGET: ETS1 (UniProt P14921)
# Sequence: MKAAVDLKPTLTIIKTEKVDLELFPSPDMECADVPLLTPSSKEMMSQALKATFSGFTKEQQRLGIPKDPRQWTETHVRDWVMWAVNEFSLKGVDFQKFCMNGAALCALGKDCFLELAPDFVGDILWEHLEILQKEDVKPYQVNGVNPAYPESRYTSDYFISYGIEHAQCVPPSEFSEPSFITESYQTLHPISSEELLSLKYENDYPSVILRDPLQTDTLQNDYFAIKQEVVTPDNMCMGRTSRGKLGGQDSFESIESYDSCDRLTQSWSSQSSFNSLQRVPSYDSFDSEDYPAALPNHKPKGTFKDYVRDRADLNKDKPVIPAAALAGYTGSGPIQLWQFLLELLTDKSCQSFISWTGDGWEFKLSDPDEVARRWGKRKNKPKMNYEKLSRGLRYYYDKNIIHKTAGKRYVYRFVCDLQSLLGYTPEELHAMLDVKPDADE
# ASSAY REMARKS: TF binding intensity (PBM fluorescence), negative control probe (arbitrary fluorescence units); higher = stronger binding
Provide a numeric answer; units are not to be included.

Use the examples below as a reference point.
{"columns": ["INPUT SEQUENCE", "OBSERVABLE", "RECORDED RESULT"],
 "data": [
  ["TGGACTAACTCCATTGCCTTTGTATACATTGGTTTC (protein concentration 10 nM)", "TF binding intensity", 102],
  ["GCTGGGGTTTGCTGCCTGGAGGCAGCCTGTCCAGGA (protein concentration 10 nM)", "TF binding intensity", 109],
  ["AGCCCGGGTGACTTGAGAGTAATTAATGTGCAAAGA (protein concentration 10 nM)", "TF binding intensity", 106]
]}

In the following, a different sequence is considered.
// query Data request, read-out TF binding intensity, for ACGAAAGTAAACAGTACTAGGTGCAGGGGCTTTAAT (protein concentration 10 nM)
// result 117

---

# TESTED TARGET: RUNX1 (UniProt Q01196)
# Sequence (Q01196 whole entry): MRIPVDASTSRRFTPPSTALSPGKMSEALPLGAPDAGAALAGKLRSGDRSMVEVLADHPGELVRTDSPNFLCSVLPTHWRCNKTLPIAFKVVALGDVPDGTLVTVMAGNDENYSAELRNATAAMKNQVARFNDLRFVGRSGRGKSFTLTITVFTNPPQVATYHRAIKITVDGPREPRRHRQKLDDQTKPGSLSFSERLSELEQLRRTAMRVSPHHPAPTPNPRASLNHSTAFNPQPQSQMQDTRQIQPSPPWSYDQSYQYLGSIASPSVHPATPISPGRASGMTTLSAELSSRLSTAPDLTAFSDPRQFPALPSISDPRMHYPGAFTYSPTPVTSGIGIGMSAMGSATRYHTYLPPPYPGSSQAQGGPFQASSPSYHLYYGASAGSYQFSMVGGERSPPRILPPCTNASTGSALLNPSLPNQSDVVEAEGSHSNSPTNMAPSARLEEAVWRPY
# ASSAY REMARKS: RUNX1 binding intensity (PBM fluorescence) in presence of ETS1, normalised to RUNX1-only experiment (arbitrary fluorescence units); higher = stronger binding
# ASSAY SETUP: RUNX1 concentration 2 nM; ETS1 concentration 25 nM
As shown below, each of these sequences has a reported RUNX1 binding intensity value.
Provide a numeric answer; units are not to be included.

Use the examples below as a reference point.
{"columns": ["INPUT SEQUENCE", "TESTED TARGET", "RUNX1 binding intensity"],
 "data": [
  ["ACTGAACAAACCGGATGTGGTTCCCACCTGCAATCT", "RUNX1 (UniProt Q01196)", 11400],
  ["TCTGATGTGCCTTCTTCCTGACCACAGCAACTACTA", "RUNX1 (UniProt Q01196)", 1270]
]}

// query Data request, read-out RUNX1 binding intensity, for GCACAGGCCGGAAGGAAAAGGGTTGTGGGGCTCATT
// result 952

// query Data request, read-out RUNX1 binding intensity, for TGATCAGCAAAAGGAAGTGGTTAACATGGCCCAGAA
// result 1990

// query Data request, read-out RUNX1 binding intensity, for CAGCGGCCGTCGCGGGAAGTGCGGTCGCCGCGGCCA
// result 966

// query Data request, read-out RUNX1 binding intensity, for GTTGAGTAGTGACAGGAAGTGACCGCAAGGGGGCGC
// result 3540

// query Data request, read-out RUNX1 binding intensity, for GGCAGGAAAGAGCTGATGCATTTCAACCGCAGCCTG
// result 1040

// query Data request, read-out RUNX1 binding intensity, for CACCTCCTACTTCCCCCCGCTGATAACCACCAACCC
// result 2830

// query Data request, read-out RUNX1 binding intensity, for CCATCCAGGAAGCTTATGGTGCGACCGCAGTGTGCC
// result 1160

// query Data request, read-out RUNX1 binding intensity, for TGAGGGGCTCGCCGGGAAATGTGGTTTAGCGGCCCT
// result 2000
